tested.system: HIV integrase (Human immunodeficiency virus type 1 group M subtype B, UniProt P12497, F1332H)
Construct: HIV integrase full length gene; made in house; host or cells: Escherichia coli BL21(DE3)
test.details: Determination of enzyme (HIV integrase) inhibitory activity (strand transfer, microtiter plate, absorbance at 450 nm)
Assay type: biochemical, HIV (Human Immunodeficiency Virus (type 1))
experimental.setup: recombinant HIV integrase (F185H) expressed in E. coli; donor DNA on streptavidin plate, digoxigenin target DNA; 37° C.
Method: The following explains evaluation methods of the HIV integrase inhibitory activity of the compound of the present invention. (i) Construction of Recombinant Integrase Gene Expression System (ii) Production and Purification of Integrase Protein […] A peroxidase color solution (Bio Rad, 100 μl) was added and allowed to react at room temperature for 4 min. […] The absorbance at 450 nm was measured. […]
pIC50: −log10 of the molar value.
Reported pIC50 is given for each of the following compounds.

{"compound": "O=C(O)c1cn(CCCCO)c2ccc(Cc3cccc(Cl)c3Cl)cc2c1=O", "pIC50": 7.13}
{"compound": "NC(=O)CCn1cc(C(=O)O)c(=O)c2cc(Cc3cccc(Cl)c3Cl)ccc21", "pIC50": 6.85}
{"compound": "CSCCn1cc(C(=O)O)c(=O)c2cc(Cc3cccc(Cl)c3Cl)ccc21", "pIC50": 7.17}
{"compound": "CC(O)Cn1cc(C(=O)O)c(=O)c2cc(Cc3cccc(Cl)c3Cl)ccc21 (stereo not drawn)", "pIC50": 6.85}
{"compound": "O=C(O)c1cn(CCO)c2ncc(Cc3cccc(Cl)c3Cl)cc2c1=O", "pIC50": 6.85}
{"compound": "O=C(O)c1cn(CCO)c2ccc(Cc3ccccc3-c3ccccc3)cc2c1=O", "pIC50": 6.82}

====

tested.system: HIV integrase (Human immunodeficiency virus type 1 group M subtype B, UniProt P12497, F1332H)
Construct: HIV integrase full length gene
test.details: Determination of enzyme (HIV integrase) inhibitory activity (strand transfer, microtiter plate, absorbance at 450 nm)
experimental.setup: recombinant HIV integrase (F185H) expressed in E. coli; donor DNA on streptavidin plate, digoxigenin target DNA; 37° C.
Hi! Could you tag entries with IC50 below 20 nM as Fulfilled, and those at or above as Not fulfilled? Much appreciated.

{"smiles.input": "CC[C@@H](CO)n1cc(C(=O)O)c(=O)c2cc(Cc3cccc(Cl)c3F)ccc21", "discrete.label": "Fulfilled"}
{"smiles.input": "O=C(O)c1cn(Cc2ccc(Cl)c(Cl)c2)c2ccc(Cc3cccc(Cl)c3Cl)cc2c1=O", "discrete.label": "Not fulfilled"}
{"smiles.input": "CC(=O)NCCn1cc(C(=O)O)c(=O)c2cc(Cc3cccc(Cl)c3Cl)ccc21", "discrete.label": "Not fulfilled"}
{"smiles.input": "O=C(O)c1cn(CCO)c2cc(F)c(Cc3cccc(Cl)c3Cl)cc2c1=O", "discrete.label": "Not fulfilled"}
{"smiles.input": "O=C(O)c1cn(C(CO)CO)c2ccc(Cc3cccc(Cl)c3Cl)cc2c1=O", "discrete.label": "Fulfilled"}

Entry source: patent US8232401B2
